Data origin, for the record: paper PMC7497412

Test system: M. avium
quantityMeasured: MIC

Data request: Kindly state the measured MIC obtained for O=C(NC1CCCCCCC1)c1ccc2ccccc2c1 [13c, N-Cyclooctyl-2-naphthamide] with M. avium.
Data returned: > 227 µM

Data request: Kindly state the measured MIC obtained for O=C(Nc1nc(-c2ccc(Cl)cc2Cl)cs1)C12CC3CC(CC(C3)C1)C2 [18b] with M. avium.
Data returned: > 157 µM

Data request: Kindly state the measured MIC obtained for O=C(NC12CC3CC(CC(C3)C1)C2)c1ccc2ccccc2c1 [13d, N-(1-Adamantanyl)-2-naphthamide] with M. avium.
Data returned: > 209 µM

Data request: Kindly state the measured MIC obtained for O=C(NC12CC3CC(CC(C3)C1)C2)c1cc(=O)c2c(Br)cccc2[nH]1 [8i] with M. avium.
Data returned: > 159 µM
